Test system: L1210 leukemia ip in BDF1 mice, survival T/C
procedure-summary: NCI In Vivo Anticancer Drug Screen. Data for tumor model L1210 Leukemia (intraperitoneal) in B6D2F1 (BDF1) mice
protocol-conditions: endpoint: mean survival time; dose: 200.0 mg/kg/injection; schedule: Q04DX003 (ip); vehicle: saline; higher = longer survival
Toxic doses and inconclusive results are not listed.
quantity: T/C

>>> assay_result("NC(=O)C(c1ccccc1)N1CCOCC1 (stereo not given)")
"104 % of control"

Provide T/C value for the following compound: "Cc1cccc(CNCC(=O)O)c1"
98 % of control

Provide T/C value for the following compound: "CN1C(=O)CC[n+]2ccccc21"
104 % of control

Provide T/C value for the following compound: CC(=O)OCC1OC(OC(C)=O)C(NC(=O)N(C)C)C(OC(C)=O)C1OC(C)=O (stereo not given)
101 % of control

Provide T/C value for the following compound: OC1CCCSC1 (stereo not given)
100 % of control

Provide T/C value for the following compound: O=P(CCCl)(OCCCl)N1CCCCC1 (stereo not given)
102 % of control

Provide T/C value for the following compound: "Cc1cc(CN)c(C)cc1CN"
97 % of control

Provide T/C value for the following compound: "CCOC(=O)CNCc1cccnc1"
87 % of control

Provide T/C value for the following compound: "CC(=O)N(C(C)=O)c1ccc(N=Nc2ccccc2C)cc1C"
94 % of control

Provide T/C value for the following compound: "C[n+]1c(/C=C/c2ccc(O)c3ncccc23)[se]c2ccccc21"
110 % of control

Provide T/C value for the following compound: "CC(=O)Nc1ccc(S(N)(=O)=O)cn1"
89 % of control

Provide T/C value for the following compound: "C/C=N/N(C)C=O"
119 % of control

Provide T/C value for the following compound: "Nc1ccc(Oc2ccc(S(=O)(=O)O)cc2)cc1"
94 % of control

Provide T/C value for the following compound: "CC1(C)CC(N)CC(C)(C)N1O"
97 % of control

Provide T/C value for the following compound: "C=CCn1cnc(=N)c2[nH]cnc21"
94 % of control
